Experimental target: GIPC2, Q8TF65
Sequence (Q8TF65 112-203): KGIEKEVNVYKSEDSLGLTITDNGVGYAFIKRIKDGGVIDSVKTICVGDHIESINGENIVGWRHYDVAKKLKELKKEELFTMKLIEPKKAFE
Protocol details: holdup assay
Set-up: key: below the threshold = too weak to quantify, mostly under pKd 3.1 to 4
Run conditions: plain residues with an end cap or a label only (N-terminal biotin on a linker: ado-ado)
Measurement name: pKd

Previously resolved entries follow.
- Binder: "NISARRFTLC [FAM167B, Q9BTA0]"
  Readout value: "below the threshold"
- Binder: "HLSTRQGTCV [ATRNL1, Q5VV63]"
  Readout value: "below the threshold"
- Binder: "IGHEDLETAV [DGKI, O75912]"
  Readout value: 3.6
- Binder: "THREVKFTSL [CD46, P15529]"
  Readout value: "below the threshold"
- Binder: "STYCDYTIEI [FAM71C, Q8NEG0]"
  Readout value: 3.49

// for each binder below, give its pKd
1. TFSRRPKTRV [CD226, Q15762]
2. QQGLLPHSSC [TYRO3, Q06418]
3. EFKQTSSFLV [JAM1, Q9Y624]
4. KKTPVSRSHL [SLC22A3, O75751]
5. SKQFDKNAYV [CLDN10, P78369]
6. PALKNGQYWV [CSPG4, Q6UVK1]
7. YAEKRMLTEV [KCNA6, P17658]

Data returned:
1. below the threshold
2. 3.53
3. below the threshold
4. below the threshold
5. below the threshold
6. below the threshold
7. below the threshold

// for each binder below, give its pKd
1. ATKDKKITTV [EXOC4, Q96A65]
2. DAAHHDESNC [FMNL3, Q8IVF7]
3. KEKASTETEC [TRPM1, Q7Z4N2]
4. ELKAEDEVQI [DCHS2, Q6V1P9]
5. VYEVPVETKF [SLC26A3, P40879]
6. VISSDDLTEL [CAPN6, Q9Y6Q1]

Data returned:
1. below the threshold
2. 3.68
3. 4.1
4. below the threshold
5. 3.53
6. below the threshold

// for each binder below, give its pKd
1. IKLETKKTKL [SLC15A2, Q16348]
2. PKSNSSKEYV [CLDN7, O95471]
3. PAALPESTHM [SLC9A3, P48764]
4. THHRKIHTRV [ZNF599, Q96NL3]
5. PDSYHRRDFW [U2AF2, P26368]
6. HYPASPDSWV [CTNND2, Q9UQB3]

Data returned:
["below the threshold", "below the threshold", "below the threshold", 3.56, "below the threshold", 3.61]

// for each binder below, give its pKd
1. IQISELETNV [SLC1A7, O00341]
2. GDSSRKEYFI [GYPC, P04921]
3. QKNKDREYYV [NRXN3, Q9HDB5]
4. NNMAFETTHF [SLC5A12, Q1EHB4]
5. AKADAQESRL [PLCB2, Q00722]
6. MQILSKPEFI [NPSR1, Q6W5P4]
7. DSEEELPTRL [GRK6, P43250]

Data returned:
1: 3.86; 2: below the threshold; 3: 3.52; 4: below the threshold; 5: below the threshold; 6: below the threshold; 7: 3.65

Data request: Quick one: pKd for RGKNRRQSIF [CDK18, Q07002] ?
Data returned: below the threshold
